Biological target: α7^Q79G-GlyR (Homo sapiens, UniProt P36544, Q79G)
Construct: expressed in transfected cells; host or cells: HEK cells
Sequence (P36544 with tags, fused parts or gaps Q79G): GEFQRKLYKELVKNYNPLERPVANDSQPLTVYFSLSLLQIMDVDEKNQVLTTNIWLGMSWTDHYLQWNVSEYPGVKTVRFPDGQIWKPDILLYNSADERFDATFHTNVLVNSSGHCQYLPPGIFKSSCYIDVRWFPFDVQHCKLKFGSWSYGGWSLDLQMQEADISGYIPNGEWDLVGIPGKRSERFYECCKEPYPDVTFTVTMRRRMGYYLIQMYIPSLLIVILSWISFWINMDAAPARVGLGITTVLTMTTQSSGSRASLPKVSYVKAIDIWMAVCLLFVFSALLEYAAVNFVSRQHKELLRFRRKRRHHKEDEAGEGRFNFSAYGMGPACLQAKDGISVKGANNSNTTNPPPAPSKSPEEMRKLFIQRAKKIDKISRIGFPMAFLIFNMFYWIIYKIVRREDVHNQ
Test: Agonist potency (EC50), HEK cells expressing chimeric channel
Type: cell-based
reported_endpoint: pEC50
Worth noting: pEC50 values are minus log10 of concentrations stated in mol/L.

Use these answered entries as a reference point.
O=c1cccc2n1C[C@@H]1CNC[C@H]2C1 :: 5.25
Clc1ccc(C2CC3CCC2N3)cn1 (stereo not drawn) [Epibatidine] :: 7.16

Then there is this compound:
query: Value lookup for pEC50; key = O=C(NC1CN2CCC1CC2)c1ccc(Cl)cc1 (stereo not drawn)
result: 7.59
